- Study system: Phosphodiesterase 4 (Homo sapiens, UniProt P27815+Q08499+Q07343+Q08493)
- Protocol notes: Inhibitory activity on human eosinophil phosphodiesterase 4.
- Type: protein assay
Could you please mark 1.0 for values of IC50 below 300 nM and 0.0 for values at or above it?

Hi there! Is IC50 for CCc1nn(C2CCCCC2)c2c1CCN(c1cccc(OC)c1)C2=O below 300 nM, do you know? 1.0

Hi there! Is IC50 for CCc1nn(C2CCCC2)c2c1CCN(c1cccnc1)C2=O below 300 nM, do you know? 1.0

Hi there! Is IC50 for CCc1nn(-c2ccc(F)cc2)c2c1CCN(c1ccccc1OC)C2=O below 300 nM, do you know? 0.0

Hi there! Is IC50 for CCc1nn(-c2ccc(F)cc2)c2c1CCN(c1cccc(C)c1)C2=O below 300 nM, do you know? 1.0

Hi there! Is IC50 for CCc1nn(C2CCCC2)c2c1CCN(c1ccsc1)C2=O below 300 nM, do you know? 0.0

Hi there! Is IC50 for CCCc1nn(-c2ccc(F)cc2)c2c1CCN(c1ccc(OC)cc1)C2=O below 300 nM, do you know? 0.0

Hi there! Is IC50 for CCc1nn(C2CCCC2)c2c1CCN(c1ccccc1C)C2=O below 300 nM, do you know? 0.0

Hi there! Is IC50 for CCc1nn(C2CCCC2)c2c1CCN(c1ccccn1)C2=O below 300 nM, do you know? 0.0

Hi there! Is IC50 for CCc1nn(C2CCCC2)c2c1CCN(c1ccccc1)C2=O below 300 nM, do you know? 1.0

Hi there! Is IC50 for CCc1nn(C2CCCC2)c2c1CCN(c1cccc(OC)c1)C2=O below 300 nM, do you know? 1.0

Hi there! Is IC50 for CCc1nn(-c2ccc(F)cc2)c2c1CCN(c1cccc(OC)c1)C2=O below 300 nM, do you know? 0.0

From: ChEMBL document CHEMBL1131576
